System: Cytochrome P450 3A4 (Homo sapiens, UniProt P08684) | Read-out: AC50;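 further: CYP3A4 tested as one member of a cytochrome P450 panel screen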
Sequence (P08684 whole entry): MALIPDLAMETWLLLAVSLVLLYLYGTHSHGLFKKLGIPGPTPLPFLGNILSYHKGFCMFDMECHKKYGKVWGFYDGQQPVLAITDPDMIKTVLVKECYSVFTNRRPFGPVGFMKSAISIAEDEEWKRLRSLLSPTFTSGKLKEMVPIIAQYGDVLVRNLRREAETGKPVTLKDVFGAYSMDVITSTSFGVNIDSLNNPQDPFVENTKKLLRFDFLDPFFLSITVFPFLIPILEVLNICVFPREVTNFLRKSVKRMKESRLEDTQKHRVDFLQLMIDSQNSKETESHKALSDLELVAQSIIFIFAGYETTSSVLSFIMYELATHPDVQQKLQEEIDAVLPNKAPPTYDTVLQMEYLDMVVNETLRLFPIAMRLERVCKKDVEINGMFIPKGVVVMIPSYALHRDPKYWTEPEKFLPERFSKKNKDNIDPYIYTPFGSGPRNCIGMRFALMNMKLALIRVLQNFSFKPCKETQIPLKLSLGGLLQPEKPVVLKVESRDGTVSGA
reported.metric: AC50

COc1ccc(C(=O)Nc2ccc(F)cc2F)cc1OC | 25.1 µM (inconclusive)
C[C@@H](N)Cn1ccc2cc(F)c(Cl)cc21 | 39.8 µM (inconclusive)
CCN1C[C@]2(C)CC[C@H](OC)[C@@]34[C@@H]2[C@H](OC(C)=O)C2(OCO[C@@]25C[C@@H](OC)[C@H]2C[C@@]3(O)[C@H]5[C@@H]2OC)[C@H]14 | 15.8 µM (inconclusive)
CN(C)c1ccc(/C=C2\SC(=S)N(Nc3ncc(C(F)(F)F)cc3Cl)C2=O)cc1 | 14.1 µM (inconclusive)
O=c1onc2n1-c1cc(Br)ccc1OC2 | 20 µM (inconclusive)
CC(=O)NCCNc1nc(-c2ccccc2Cl)nc2ccccc12 | 5.01 µM (inconclusive)
COc1cccc(CNCc2ccc(SC)cc2)c1OC | 11.2 µM (inconclusive)
CCCCC[C@H](CC(=O)NO)C(=O)N[C@@H](C(=O)N1CCC[C@H]1CO)C(C)C | 5.01 µM (inconclusive)
COc1cc(/C=N/NC(=O)c2ccncc2)ccc1OC(=O)c1ccc([N+](=O)[O-])cc1 | 0.891 µM (inconclusive)
N[C@@H](CC1=CS(=O)(=O)c2ccc(Cl)cc21)C(=O)O | 5.01 µM (inconclusive)
N#CC(c1ccccn1)(c1ncc(C(F)(F)F)cc1Cl)N1CCOCC1 (stereo unspecified) | 35.5 µM (inconclusive)
CCc1c(C)nc2ncnn2c1NCCc1ccc(OC)cc1 | 25.1 µM (inconclusive)
COc1ccc(-c2nc3cnc(N4CCNCC4)nc3n(C)c2=O)cc1 | 31.6 µM (inconclusive)
Cc1csc(NC(=O)CNS(=O)(=O)c2cccs2)n1 | 17.8 µM (inconclusive)
CC(=O)N1CCC[C@@]2(CCN(Cc3nccs3)C2)C1 | 31.6 µM (inconclusive)
COc1cccc(-c2ccc3ncnc(N4CCNCC4)c3c2)c1 | 10 µM (inconclusive)

----------
Test: viability of PTEN-deleted HCT116 cells – cell-based, HCT116 PTEN knockout, dose response (AID 1047);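 further: HCT116 colon tumor cells with PTEN knocked out; cells exposed to compound for 60 hours before readout; potency for loss of cell viability measured by luminescence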
Assay type: functional
Activity calls are given as the source filed them.
reported.metric: EC50

O=C1c2cccc3c(N4CCCCC4)ccc(c23)C(=O)N1CCO | 67.5 µM (active)
Cc1oc2c(c1C(=O)N1CCC(C)CC1)C(=O)c1ccccc1C2=O | 1.92 µM (active)
CCC(=C(c1ccc(OC)cc1)c1ccc(OC)cc1)c1cn(CC(O)CN2CCN(C)CC2)c2ccccc12 (centres undefined) | 7.95 µM (active)
Cc1ccc(N(CC(=O)NCCc2ccc(F)cc2)S(=O)(=O)c2ccc(Cl)c([N+](=O)[O-])c2)c(C)c1 | 14 µM (active)

----------
Please consider the recorded IC50 for Glyceraldehyde-3-phosphate dehydrogenase (Homo sapiens, UniProt P04406) in what follows.
reported.metric: IC50

O=C(NCCCO)c1cc(-c2cc(F)c(Cl)cc2Cl)n[nH]1 | > 10 µM (inconclusive)
CC1(C)CC(=O)c2c(-c3ccc(Cl)cc3)n[nH]c2C1 | > 100 µM (not active)
COc1ccc(-c2n[nH]c3c2C(=O)CC(C)(C)C3)cc1 | > 100 µM (not active)
COc1ccc(S(=O)(=O)Nc2ccc3ccccc3c2)cc1 | > 100 µM (not active)
COc1ccc(Cl)cc1S(=O)(=O)Nc1cnc2ccccc2c1 | > 10 µM (inconclusive)
Cc1ccc(C)n1-c1ccc(S(N)(=O)=O)cc1 | > 100 µM (not active)
COc1ccc(OC)c(S(=O)(=O)Nc2ccc(O)c3ccccc23)c1 | > 100 µM (not active)
COCCNC1=C(Cl)C(=O)N(c2ccc(Cl)c(Cl)c2)C1=O | > 100 µM (not active)
Cn1ncc2c1ncn1c(-c3ccc(Cl)cc3Cl)nnc21 | > 100 µM (not active)
CC(C)[C@@H](C(N)=O)n1c(=O)[nH]c(=O)n(-c2ccc(Cl)cc2)c1=O | > 100 µM (not active)
Nc1nnc(-c2ccc(Cl)cc2)[nH]1 | > 100 µM (not active)

----------
Overview of reported EC50 across a group of compounds:
Molecular target: Heat shock factor protein 1 (Mus musculus)
Sequence (P38532 whole entry): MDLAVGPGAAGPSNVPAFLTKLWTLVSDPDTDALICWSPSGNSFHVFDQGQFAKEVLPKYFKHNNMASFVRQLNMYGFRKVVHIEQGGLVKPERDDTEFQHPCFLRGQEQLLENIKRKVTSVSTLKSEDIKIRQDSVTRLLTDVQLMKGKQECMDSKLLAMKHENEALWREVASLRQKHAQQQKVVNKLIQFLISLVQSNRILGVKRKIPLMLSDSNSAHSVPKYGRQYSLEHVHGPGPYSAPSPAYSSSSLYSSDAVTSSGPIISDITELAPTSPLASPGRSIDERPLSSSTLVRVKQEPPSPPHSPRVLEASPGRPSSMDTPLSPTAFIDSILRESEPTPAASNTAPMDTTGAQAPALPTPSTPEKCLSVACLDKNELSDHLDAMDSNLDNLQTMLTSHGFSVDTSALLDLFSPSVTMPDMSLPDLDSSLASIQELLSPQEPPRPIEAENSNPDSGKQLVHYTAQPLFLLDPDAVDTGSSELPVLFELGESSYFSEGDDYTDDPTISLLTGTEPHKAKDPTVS
Test: decrease of HSF1-responsive luciferase luminescence – cell-based, NIH3T3, dose retest, confirmation (AID 2382);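 further: NIH3T3 fibroblasts with HSF1-driven luciferase reporter stressed by proteasome inhibitor MG132; luminescence from HSF1-driven luciferase expression after 8 hours of MG132 stress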
Type: functional
The source made the active and inactive calls.
reported.metric: EC50

CCS(=O)(=O)c1nc(S(=O)(=O)c2ccc(C)cc2)c(N2CCC(C)CC2)s1 | > 195 µM (not active)
Cc1cc(N=Nc2ccc(Cl)cc2)cc(CN2CCCC2)c1O | > 195 µM (not active)
CC(=O)OCCCNc1cc(Sc2ccc(C)cc2)c2nonc2c1[N+](=O)[O-] | > 195 µM (not active)
COc1ccc2nc(O)c(CN(Cc3cccs3)S(=O)(=O)c3c(C)ccc4nsnc34)cc2c1 | 0.503 µM (active)
O=C(c1ccc2c(c1)OCO2)N1CCC2(CC1)OCCO2 | > 195 µM (not active)
CCOC(=O)c1c(CSCc2ccccc2)oc2ccc(O)c(CN(C)C)c12 | > 195 µM (not active)
N=C(NC(=O)c1ccc(Cl)cc1)Nc1nc2ccccc2o1 | > 195 µM (not active)
COc1cccc(NC(=S)N(CCC(C)C)C2CCN(C(C)=O)CC2)c1 | > 195 µM (not active)
CCOC(=O)C(C)c1ccc2cc(OC)ccc2c1 (stereo unspecified) | > 195 µM (not active)
Cc1ccc(S(=O)(=O)c2ccc(Oc3ccccc3)cc2)cc1 | 21.5 µM (active)
Cc1ccc(NC(=O)CCN2C(=O)C3CCCCC3C2=O)cc1[N+](=O)[O-] (stereo unspecified) | > 195 µM (not active)

----------
Tested on: INS1
Experiment: INS-1E survival protection against cytokine death – cell-based, luminescence, retest, dose response (AID 449756);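 further: cell death triggered by IL-1 beta plus TNF-alpha plus IFN-gamma mixture; protective hits raise ATP signal compared with cytokine alone wells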
Assay type: functional
Settings: Rattus norvegicus
Calls of active or inactive are those of the source.
reported.metric: AC50

c1ccc2c(c1)ncn2CCCCOc1ccc2c(c1)CCC2 | 5.04 µM (active)
COc1cc2cc(C(=O)N3CCOCC3)cc(-c3ccc(C)cc3)c2cc1OC | 6.42 µM (active)
CC(=O)c1ccccc1OCCOCCOc1ccccc1C(C)=O | 31.1 µM (active)
N#CCSc1nc2ccccc2c2nc3ccccc3n12 | 8.38 µM (active)

----------
Target: Voltage-gated inwardly rectifying potassium channel KCNH2 (Homo sapiens, UniProt Q12809);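 further: confirmatory quantitative high-throughput screen measuring inhibition of hERG channel activity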
Sequence (Q12809 whole entry): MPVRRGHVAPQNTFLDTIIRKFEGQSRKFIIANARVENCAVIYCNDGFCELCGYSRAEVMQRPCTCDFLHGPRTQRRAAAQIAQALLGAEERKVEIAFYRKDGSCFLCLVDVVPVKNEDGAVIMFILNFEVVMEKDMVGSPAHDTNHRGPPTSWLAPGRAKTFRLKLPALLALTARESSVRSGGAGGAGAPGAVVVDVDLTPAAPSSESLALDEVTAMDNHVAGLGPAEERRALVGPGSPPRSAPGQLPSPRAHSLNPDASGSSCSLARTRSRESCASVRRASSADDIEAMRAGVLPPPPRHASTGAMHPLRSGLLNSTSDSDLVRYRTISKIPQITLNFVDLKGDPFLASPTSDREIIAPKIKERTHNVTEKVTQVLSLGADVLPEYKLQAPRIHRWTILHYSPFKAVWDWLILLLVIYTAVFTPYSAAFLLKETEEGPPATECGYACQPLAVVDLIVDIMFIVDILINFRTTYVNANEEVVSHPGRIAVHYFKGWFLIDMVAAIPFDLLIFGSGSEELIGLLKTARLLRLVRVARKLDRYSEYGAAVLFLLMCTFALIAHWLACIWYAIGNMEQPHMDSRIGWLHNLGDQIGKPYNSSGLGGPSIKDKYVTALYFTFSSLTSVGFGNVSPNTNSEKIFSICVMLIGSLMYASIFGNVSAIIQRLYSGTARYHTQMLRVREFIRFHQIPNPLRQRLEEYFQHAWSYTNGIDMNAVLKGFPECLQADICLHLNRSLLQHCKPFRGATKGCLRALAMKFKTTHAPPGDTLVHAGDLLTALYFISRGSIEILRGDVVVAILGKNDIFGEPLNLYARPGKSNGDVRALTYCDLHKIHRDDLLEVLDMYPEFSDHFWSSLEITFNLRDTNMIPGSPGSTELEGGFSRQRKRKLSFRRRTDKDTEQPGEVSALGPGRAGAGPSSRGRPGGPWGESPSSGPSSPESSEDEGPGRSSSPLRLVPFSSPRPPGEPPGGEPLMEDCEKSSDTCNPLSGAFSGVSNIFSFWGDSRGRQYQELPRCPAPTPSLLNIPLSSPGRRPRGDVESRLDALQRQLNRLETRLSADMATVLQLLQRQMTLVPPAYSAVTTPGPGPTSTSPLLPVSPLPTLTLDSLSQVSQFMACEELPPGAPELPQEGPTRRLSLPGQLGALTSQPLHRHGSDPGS
Details: Potency
reported.metric: AC50

c1ccc2c(N3CCNCC3)cccc2c1 | 35.5 µM (inconclusive)
O=c1onc2n1-c1cc(Br)ccc1OC2 | 5.62 µM (inconclusive)
O=C(O)/C=C/c1ccc(O)c(O)c1 | 2.51 µM (inconclusive)
N=C1N=C(N)c2cc3ccccc3cc21 | 28.2 µM (inconclusive)
CCCCCCc1ccc(-c2ccc(C#N)cc2)cc1 | 6.31 µM (inconclusive)

----------
The listing below reports AC50 for compounds tested on Cytochrome P450 2C9 (Homo sapiens, UniProt P11712).
Sequence (P11712 whole entry): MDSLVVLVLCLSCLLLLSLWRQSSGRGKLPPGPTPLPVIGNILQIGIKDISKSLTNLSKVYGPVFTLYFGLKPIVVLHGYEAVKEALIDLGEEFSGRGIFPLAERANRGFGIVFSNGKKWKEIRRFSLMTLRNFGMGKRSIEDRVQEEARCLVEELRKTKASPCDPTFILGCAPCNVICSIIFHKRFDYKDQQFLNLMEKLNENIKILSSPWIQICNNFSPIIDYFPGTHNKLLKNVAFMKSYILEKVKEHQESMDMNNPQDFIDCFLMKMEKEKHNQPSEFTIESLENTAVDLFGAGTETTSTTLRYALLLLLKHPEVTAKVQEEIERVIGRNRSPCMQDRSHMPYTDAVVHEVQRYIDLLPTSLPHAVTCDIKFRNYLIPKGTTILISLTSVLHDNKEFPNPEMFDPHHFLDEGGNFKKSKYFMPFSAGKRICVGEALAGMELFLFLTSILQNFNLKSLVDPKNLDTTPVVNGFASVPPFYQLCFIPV
reported.metric: AC50

c1ccc(CSc2nnc([C@@H]3CCCN3)o2)cc1 | 5.62 µM (inconclusive)
Cn1c(=S)c2nc(SCc3cccnc3)[nH]c2n(C)c1=O | 6.31 µM (inconclusive)
O=C(c1csnn1)N1CCC2(CC1)CCN(c1ccccn1)CC2 | 20 µM (inconclusive)
COc1ccc2c(c1)c(CC(=O)O)c(C)n2Cc1ccc(Cl)cc1 | 12.6 µM (inconclusive)
O=S1(=O)N(CCN2CC=C(c3c[nH]c4cc(F)ccc34)CC2)c2cccc3c2N1CCC3 | 25.1 µM (inconclusive)
CCn1c(-c2ccccc2Cl)nn(CC(=O)Nc2cc(Cl)ccc2Cl)c1=S | 25.1 µM (inconclusive)
O=C(C1CCN(S(=O)(=O)c2cccc3nsnc23)CC1)N1CCCc2ccccc21 | 39.8 µM (inconclusive)
N[C@@H](CC1=CS(=O)(=O)c2ccc(Cl)cc21)C(=O)O | 6.31 µM (inconclusive)
COc1cc(/C=N/NC(=O)c2ccncc2)ccc1OC(=O)c1ccc([N+](=O)[O-])cc1 | 3.55 µM (inconclusive)
CCOC(=O)c1c(NC(=O)Cn2nc([N+](=O)[O-])c(Br)c2C)sc2c1CCC(C)C2 (stereo not given) | 3.55 µM (inconclusive)

----------
Let's go through some recorded AC50 values for Cytochrome P450 2D6 (Homo sapiens, UniProt P10635) together.
reported.metric: AC50

CN(C)c1ccc(-c2cncnc2NCc2cccnc2)cc1 | 12.6 µM (inconclusive)
CCc1c(C)nc2ncnn2c1NCCc1ccc(OC)cc1 | 12.6 µM (inconclusive)
COc1cccc([C@@H]2Oc3ccc(OC)cc3C(=O)[C@H]2O)c1 | 3.16 µM (inconclusive)
O=C(CCN1C(=O)c2ccccc2C1=O)NC(=S)Nc1cccc(Cl)c1 | 0.0447 µM (inconclusive)
CCn1c(-c2ccccc2Cl)nn(CC(=O)Nc2cc(Cl)ccc2Cl)c1=S | 25.1 µM (inconclusive)
O=C(c1ccco1)N1CCC2(CC1)CN(Cc1ccncc1)C2 | 12.6 µM (inconclusive)
Clc1ccccc1-c1nccc(NCc2ccccc2)n1 | 39.8 µM (inconclusive)
CCC(=O)Nc1ccc(N2CCN(CC)CC2)c(Cl)c1 | 0.0447 µM (inconclusive)
O=C(c1csnn1)N1CCC2(CC1)CCN(c1ccccn1)CC2 | 20 µM (inconclusive)
